Molecular target: T1, human high affinity trimeric IL-2 receptor (CD25/CD122/CD132) (human, UniProt P01589 22-272; P14784 27-551; P31785 23-369)
T1 sequence 1: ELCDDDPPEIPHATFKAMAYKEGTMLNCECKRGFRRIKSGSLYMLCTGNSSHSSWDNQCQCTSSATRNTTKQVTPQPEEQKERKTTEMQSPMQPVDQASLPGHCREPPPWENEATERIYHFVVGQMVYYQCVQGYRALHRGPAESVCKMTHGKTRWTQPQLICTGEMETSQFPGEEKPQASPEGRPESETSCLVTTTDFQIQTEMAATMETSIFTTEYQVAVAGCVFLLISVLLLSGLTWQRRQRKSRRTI
T1 sequence 2: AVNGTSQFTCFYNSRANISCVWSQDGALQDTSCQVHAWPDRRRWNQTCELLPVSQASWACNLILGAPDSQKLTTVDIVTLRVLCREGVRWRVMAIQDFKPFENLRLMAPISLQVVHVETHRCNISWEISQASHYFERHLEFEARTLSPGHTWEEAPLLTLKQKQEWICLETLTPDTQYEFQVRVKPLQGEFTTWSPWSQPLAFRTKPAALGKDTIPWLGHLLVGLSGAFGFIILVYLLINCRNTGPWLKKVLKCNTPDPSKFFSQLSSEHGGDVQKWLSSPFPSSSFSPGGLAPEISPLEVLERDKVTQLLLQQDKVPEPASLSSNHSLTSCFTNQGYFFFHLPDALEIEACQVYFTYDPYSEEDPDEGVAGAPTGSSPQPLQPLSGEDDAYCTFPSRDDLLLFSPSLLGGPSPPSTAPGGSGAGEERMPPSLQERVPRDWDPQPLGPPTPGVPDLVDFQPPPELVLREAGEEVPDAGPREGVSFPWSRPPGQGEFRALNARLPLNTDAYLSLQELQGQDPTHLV
T1 sequence 3: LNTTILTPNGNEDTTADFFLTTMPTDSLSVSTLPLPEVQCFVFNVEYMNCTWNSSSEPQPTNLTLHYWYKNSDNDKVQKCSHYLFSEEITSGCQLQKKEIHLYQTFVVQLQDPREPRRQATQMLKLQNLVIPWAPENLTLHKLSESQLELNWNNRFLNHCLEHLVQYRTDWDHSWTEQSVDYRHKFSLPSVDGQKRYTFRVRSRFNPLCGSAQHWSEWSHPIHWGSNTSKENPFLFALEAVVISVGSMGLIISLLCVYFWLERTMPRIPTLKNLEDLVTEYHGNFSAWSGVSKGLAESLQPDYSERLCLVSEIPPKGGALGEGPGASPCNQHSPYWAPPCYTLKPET
Assay: cell-based or functional assay
RESULT_TYPE: pSTAT5 ratio YT CD25/YT, dilution factor 16, upper table
Answers are plain numbers.

Examples with their reported pSTAT5 ratio YT CD25/YT, dilution factor 16, upper table follow.
EEH (ligand) cytokine: APTSSSTKKTQLQLEHLELDLEMILNGINNYKNPKLTRMLTFKFYMPKKATELKHLQCLEEELKPLEEVLNLAQSKNFHLRPRDLISNINVIVLELKGSETTFMCEYADETATIVEFLNRWITFCHSIISTLT: 8.4
SEH (ligand) cytokine: APTSSSTKKTQLQLEHLSLDLEMILNGINNYKNPKLTRMLTFKFYMPKKATELKHLQCLEEELKPLEEVLNLAQSKNFHLRPRDLISNINVIVLELKGSETTFMCEYADETATIVEFLNRWITFCHSIISTLT: 4
FEH (ligand) cytokine: APTSSSTKKTQLQLEHLFLDLEMILNGINNYKNPKLTRMLTFKFYMPKKATELKHLQCLEEELKPLEEVLNLAQSKNFHLRPRDLISNINVIVLELKGSETTFMCEYADETATIVEFLNRWITFCHSIISTLT: 1.4
hIL2 mutein REE (L18R, Q22E, Q126E) (ligand) APTSSSTKKTQLQLEHLRLDLEMILNGINNYKNPKLTRMLTFKFYMPKKATELKHLQCLEEELKPLEEVLNLAQSKNFHLRPRDLISNINVIVLELKGSETTFMCEYADETATIVEFLNRWITFCESIISTLT: 10.1
hIL2 mutein REH (L18R, Q22E, Q126H) (ligand) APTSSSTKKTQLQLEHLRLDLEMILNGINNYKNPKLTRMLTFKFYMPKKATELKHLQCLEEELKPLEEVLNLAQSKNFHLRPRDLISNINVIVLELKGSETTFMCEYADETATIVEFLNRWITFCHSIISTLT: 1.3

Alright, here's another binder for you.
*Q* Which pSTAT5 ratio YT CD25/YT, dilution factor 16, upper table value belongs to QEH (ligand) cytokine: APTSSSTKKTQLQLEHLQLDLEMILNGINNYKNPKLTRMLTFKFYMPKKATELKHLQCLEEELKPLEEVLNLAQSKNFHLRPRDLISNINVIVLELKGSETTFMCEYADETATIVEFLNRWITFCHSIISTLT ?
*A* 3.1
